B1: IFRG15 (parent)
chain: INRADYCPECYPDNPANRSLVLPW

# Variants of: B1
# ASSAY: protein stability index of a GFP-peptide fusion (GPS, HEK-293T) (PSI 1-6); higher = more stable;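 note: lentivirally expressed fusions sorted by FACS into six bins by GFP to DsRed ratio, PSI derived from sequencing read proportions per bin multiplied by bin number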
# EXPERIMENTAL SETUP: c terminus: a fixed tail appended
protein stability index of 2 or higher: rule met. Under 2: rule not met.

| CHANGES | ASSIGNED CLASS |
| --- | --- |
| P15S | rule met |
| L20V | rule met |
| S19C | rule not met |
| S19E | rule met |
| Y6M | rule met |
| L20I | rule met |
| Y11W | rule met |
| I1E | rule not met |
| A4E | rule met |
| P23I | rule met |
| L22E | rule met |
| L20E | rule met |
| P15H | rule met |

Where do these numbers come from? They come from the supplement of paper PMC10567573.
